target: G/T mismatch-specific thymine DNA glycosylase (Homo sapiens) (UniProt Q13569); settings: Compound Concentration 10.0 uM, Hit No;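 also: human TDG cleavage of quenched duplex DNA oligonucleotides coupled to APE1, strand release read as fluorescence at 594 nm, inhibition of TDG activity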
Sequence (Q13569 whole entry): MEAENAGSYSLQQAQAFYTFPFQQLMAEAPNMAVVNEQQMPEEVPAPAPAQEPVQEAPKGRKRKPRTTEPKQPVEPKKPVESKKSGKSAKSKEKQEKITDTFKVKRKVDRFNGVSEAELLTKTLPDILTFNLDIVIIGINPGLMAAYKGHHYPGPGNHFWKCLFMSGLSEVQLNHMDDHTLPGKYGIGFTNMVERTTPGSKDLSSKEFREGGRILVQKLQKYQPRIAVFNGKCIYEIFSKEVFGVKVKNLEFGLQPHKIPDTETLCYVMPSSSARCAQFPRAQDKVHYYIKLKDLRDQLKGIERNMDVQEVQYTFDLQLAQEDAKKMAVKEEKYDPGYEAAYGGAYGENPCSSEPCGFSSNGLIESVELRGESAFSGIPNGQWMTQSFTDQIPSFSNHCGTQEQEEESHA
Description: Inhibition of TDG by quantifying inhibition of TDG-mediated cleavage and dissociation of quenched duplex DNA oligonucleotides, measured as fluorescence at 594 nm. To generate a functional strand incision and increase turn-over this assay is coupled to APE1.

Compound	inhibition
CC(C)[C@@H]1CC[C@@H](C)C[C@@H]1P(=O)(c1ccccc1)c1ccccc1	-6.96%
COc1cccc(CNC(=O)c2nc3scc(CN(C)Cc4ccccc4)c3c(=O)[nH]2)c1	43.2%
CC1(C)SSC(C)(C)[C@@H](NC(=O)[C@@H](N)Cc2ccc(O)cc2)C(=O)NCC(=O)N[C@@H](Cc2ccccc2)C(=O)N[C@H]1C(=O)O	10.6%
CCCNS(=O)(=O)Nc1ncnc(OCCOc2ncc(Br)cn2)c1-c1ccc(Br)cc1	18.3%
CN(C)C(=O)C(CCN1CCC(O)(c2ccc(Cl)cc2)CC1)(c1ccccc1)c1ccccc1	5.3%
Cc1nnn(-c2ccc(-c3ccc(C4(C(=O)O)CC4)cc3)cc2)c1NC(=O)O[C@H](C)c1ccccc1	20.7%
NC(N)=Nc1nc(CSCC/C(N)=N/S(N)(=O)=O)cs1	13.5%
CN(C)C(=O)N1CC[C@H](NC2=Nc3cc(F)ccc3N(CC(F)F)c3ccc(Cl)cc32)C1	38.4%
Cc1cccc(-c2cnc3occ(-c4ccc(C(=O)O)c(C5CCCC5)c4)c3c2)c1	36.3%
O=C(N[C@@H]1CC[C@@H](c2cccc(F)c2F)CN(CC(F)(F)F)C1=O)N1CCC(n2c(=O)[nH]c3ncccc32)CC1	0.452%
CCn1c(=O)c(C)cn(Cc2nnc(-c3ccc(F)c(O)c3F)s2)c1=O	48%
CS(=O)(=O)c1cccc(NC(=O)N(Cc2ccc(C(=O)Nc3nnn[nH]3)cc2)c2ccc(C3CCCCC3)cc2)c1	36.1%
FC(F)(F)c1ccccc1-c1cc(C(F)(F)F)c2[nH]c(C3=NOC4(CCCCC4)C3)nc2c1	6.11%
CCNC(=O)c1cc2c(N3CCOCC3C)ccnc2[nH]1 (stereo not given)	58.1%
Cn1cncc1[C@@](O)(COc1ccc(C#N)cc1-c1ccc(OC(F)(F)F)cc1)c1ccc(C#N)cc1	45.8%
Cc1nc(C2CCN(C(=O)c3ccc(OC(F)(F)F)cc3N)CC2)c2ncc(N3CCN(C)CC3)cc2n1	61.5%
COc1ccc(Cl)cc1[C@]1(F)C(=O)Nc2cc(C(F)(F)F)ccc21	-9.73%
COc1cc(-c2cn([C@H]3CCc4ccccc4N(CC(F)(F)F)C3=O)nn2)ccc1-n1ccc(C)n1	24.5%
CCc1ccc(N(CC(C)C)S(=O)(=O)c2ccc(OCC3CCOCC3)c(CO)c2)cc1	98.5%
CCN(Cc1ccc(Cl)cc1)c1ncc(C(=O)NCCCN2CCCC2=O)c(NC2CCCC2)n1	63.4%
COc1ccccc1C(=O)Nc1cccc(NC(=O)c2cccc(C)c2)c1	19.8%
Cc1cc(-c2ccc3c(c2)CC[C@H]3N2CC3(CCN(C(=O)Cc4cn5cc(C)sc5n4)CC3)C2)ncn1	6.67%
O=C(N[C@H]1CN2CCC1CC2)c1ccc(Cl)cc1	21.4%
O=C(Nc1ccc(Cl)cc1)N[C@@H](Cc1ccccc1)C(=O)N1CCCCC1	22.9%
CNCc1ccccc1-c1csc([C@@H](C)Nc2nc(C)nc3cc(OC)c(OC)cc23)c1	66.2%
